Target: E. coli RNase P holoenzyme (M1 P RNA + rnpA protein)
Sequence: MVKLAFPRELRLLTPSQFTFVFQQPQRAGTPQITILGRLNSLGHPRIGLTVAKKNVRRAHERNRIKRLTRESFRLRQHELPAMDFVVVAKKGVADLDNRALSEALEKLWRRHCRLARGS
Assay: relative kcat/Km (krel) vs genomic leader AAAGAU (relative (reference leader = 1)); higher = faster RNase P cleavage
Details: fraction of substrate reacted: ~13-16% (15.68% repeat 1, 13.17% repeat 2)
The full ranking holds about 4,100 sequences; the median of “relative kcat/Km (krel) vs genomic leader AAAGAU” is about 1.7, and the highest 2% start at about 6.5. The sample as a whole holds a higher share of the highest values than the screen did.
Catalogue of relative kcat/Km readings, one per entry.
Lab note: record the figure alone, no unit after it.

The sequence listed as GCTCGC has a reported relative kcat/Km of 1.58

The sequence listed as ATCATC has a reported relative kcat/Km of 4.72

The sequence listed as GGGCAA has a reported relative kcat/Km of 1

The sequence listed as GACATT has a reported relative kcat/Km of 4.33

The sequence listed as CACGTA has a reported relative kcat/Km of 2.23

====

Target: E. coli RNase P holoenzyme (M1 P RNA + rnpA protein) (UniProt P0A7Y8)
Sequence: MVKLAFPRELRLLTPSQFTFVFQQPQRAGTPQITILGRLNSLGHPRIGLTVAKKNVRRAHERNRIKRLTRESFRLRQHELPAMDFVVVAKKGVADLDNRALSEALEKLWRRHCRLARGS
Assay: relative kcat/Km (krel) vs genomic leader AAAGAU (relative (reference leader = 1)); higher = faster RNase P cleavage
Settings: fraction of substrate reacted: ~9-10% (9.79% repeat 1, 9.1% repeat 2)
Whole data set: some 4,100 sequences, median “relative kcat/Km (krel) vs genomic leader AAAGAU” near 1.7, cut for the highest 2% near 6.5. Many of the other results were omitted from the sample, so the highest values are more common in it than they were.
Catalogue of relative kcat/Km readings, one per entry.
Lab note: record the figure alone, no unit after it.

In the examples that follow, each entry is paired with its recorded relative kcat/Km.
CGCGCA = 1.86
CTCGCT = 1.9
TTCACC = 3.91
TTCGCC = 4.66
GGATCA = 0.973
TCCTGG = 0.344

--- query ---
The sequence listed as CACACT has a reported relative kcat/Km of 2.56

====

Biological target: E. coli RNase P holoenzyme (M1 P RNA + rnpA protein) (UniProt P0A7Y8)
Sequence: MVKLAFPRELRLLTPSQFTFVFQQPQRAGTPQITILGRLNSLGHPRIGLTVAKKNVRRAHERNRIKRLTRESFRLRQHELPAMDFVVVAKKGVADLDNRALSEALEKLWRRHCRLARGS
Assay: relative kcat/Km (krel) vs genomic leader AAAGAU (relative (reference leader = 1)); higher = faster RNase P cleavage
Details: fraction of substrate reacted: ~13-16% (15.68% repeat 1, 13.17% repeat 2)
In all, about 4,100 sequences were measured (“relative kcat/Km (krel) vs genomic leader AAAGAU”: median about 1.7, highest 2% from about 6.5 on). For the sample, the highest values were picked, then their nearest neighbours and some sequences at random.
Output schema: class label derived from relative kcat/Km. Mapping: lower band: < 2; central band: ≥ 2 and < 4; upper band: ≥ 4

The following sequences have reported results that may help.
CTCCGG = lower band
TGAATC = lower band

Qu. Class (by measured relative kcat/Km) for AGTCTT
Ans. central band

Qu. Class (by measured relative kcat/Km) for CTCCGT
Ans. lower band

Qu. Class (by measured relative kcat/Km) for TAAACA
Ans. lower band
